Test system: PPARg:RXRa 30nM:10nM, anti-RXR (NR concentration 30 nM, RXRa partner concentration 10 nM)
measurement notes: PBM binding z-score (relative to random genomic background probes); higher = stronger binding; sequences stand for … in GC…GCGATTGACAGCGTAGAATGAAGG
Task for the reader: assign each of the following sequences its reported PBM binding z-score.
Numbers only.

Below are some sequences; for each one, tell me its PBM binding z-score.
1. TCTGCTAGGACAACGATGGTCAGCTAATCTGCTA
2. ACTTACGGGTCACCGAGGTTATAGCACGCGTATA
3. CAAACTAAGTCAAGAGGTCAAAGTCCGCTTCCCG
4. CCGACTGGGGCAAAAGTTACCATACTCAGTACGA
5. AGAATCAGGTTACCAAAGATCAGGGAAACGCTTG
6. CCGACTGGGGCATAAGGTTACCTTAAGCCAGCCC
7. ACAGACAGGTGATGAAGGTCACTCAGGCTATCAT

1: 0.983; 2: 3.18; 3: 2.73; 4: 4.45; 5: 0.411; 6: 0.872; 7: 0.565

Below are some sequences; for each one, tell me its PBM binding z-score.
1. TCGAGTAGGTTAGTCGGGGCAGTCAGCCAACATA
2. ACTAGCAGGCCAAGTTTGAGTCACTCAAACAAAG
3. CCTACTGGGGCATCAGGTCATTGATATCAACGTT
4. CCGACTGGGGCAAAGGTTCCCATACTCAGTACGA
5. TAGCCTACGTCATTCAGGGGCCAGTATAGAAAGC

1. 0.987
2. -0.4
3. 2.26
4. 6.55
5. -0.505

###

System: PPARg:RXRa 30nM:10nM, anti-RXR (NR concentration 30 nM, RXRa partner concentration 10 nM)
measurement notes: PBM binding z-score (relative to random genomic background probes); higher = stronger binding; sequences stand for … in GC…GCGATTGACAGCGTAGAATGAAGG
result type: PBM binding z-score
Numbers only.

{"columns": ["input sequence", "subject of test", "PBM binding z-score"],
 "data": [
  ["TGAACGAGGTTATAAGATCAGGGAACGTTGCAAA", "PPARg:RXRa 30nM:10nM, anti-RXR (NR concentration 30 nM, RXRa partner concentration 10 nM)", 0.646],
  ["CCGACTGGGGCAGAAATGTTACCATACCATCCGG", "PPARg:RXRa 30nM:10nM, anti-RXR (NR concentration 30 nM, RXRa partner concentration 10 nM)", -0.351],
  ["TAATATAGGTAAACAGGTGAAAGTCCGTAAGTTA", "PPARg:RXRa 30nM:10nM, anti-RXR (NR concentration 30 nM, RXRa partner concentration 10 nM)", 2.54],
  ["TCGAGTAGTTTAGGGGCATTCAGAATGGCGTCGA", "PPARg:RXRa 30nM:10nM, anti-RXR (NR concentration 30 nM, RXRa partner concentration 10 nM)", 0.631],
  ["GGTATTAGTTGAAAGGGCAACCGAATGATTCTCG", "PPARg:RXRa 30nM:10nM, anti-RXR (NR concentration 30 nM, RXRa partner concentration 10 nM)", 3.13]
]}

Below are some sequences; for each one, tell me its PBM binding z-score.
1. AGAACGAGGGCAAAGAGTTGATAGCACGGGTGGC
2. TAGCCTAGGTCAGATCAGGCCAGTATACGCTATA
3. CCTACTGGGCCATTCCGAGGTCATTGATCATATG
4. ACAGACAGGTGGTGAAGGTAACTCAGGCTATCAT
5. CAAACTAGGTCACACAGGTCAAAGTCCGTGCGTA
6. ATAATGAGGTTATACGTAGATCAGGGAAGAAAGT
7. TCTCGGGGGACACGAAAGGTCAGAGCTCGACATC
8. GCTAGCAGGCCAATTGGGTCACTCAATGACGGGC

1: 0.549; 2: 0.0567; 3: 0.281; 4: -0.095; 5: 5.14; 6: 0.895; 7: 3.73; 8: -0.473

Below are some sequences; for each one, tell me its PBM binding z-score.
1. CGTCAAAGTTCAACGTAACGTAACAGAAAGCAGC
2. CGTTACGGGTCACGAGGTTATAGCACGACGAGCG
3. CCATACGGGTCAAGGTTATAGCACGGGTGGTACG
4. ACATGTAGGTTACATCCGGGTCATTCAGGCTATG

[2.08, 2.7, 1.07, 1.47]

Below are some sequences; for each one, tell me its PBM binding z-score.
1. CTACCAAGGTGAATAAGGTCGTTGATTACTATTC
2. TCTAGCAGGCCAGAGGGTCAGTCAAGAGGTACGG
3. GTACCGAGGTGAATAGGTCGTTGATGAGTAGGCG
4. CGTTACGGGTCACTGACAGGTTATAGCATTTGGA
5. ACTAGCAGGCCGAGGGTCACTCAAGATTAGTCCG
6. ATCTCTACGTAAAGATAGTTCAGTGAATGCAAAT

[0.203, 1.49, 0.147, 1.79, 2.21, 0.0785]

Below are some sequences; for each one, tell me its PBM binding z-score.
1. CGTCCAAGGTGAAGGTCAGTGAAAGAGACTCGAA
2. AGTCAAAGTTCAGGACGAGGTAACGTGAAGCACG
3. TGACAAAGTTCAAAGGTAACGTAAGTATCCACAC

0.634
2.04
2.97

###

Task for the reader: assign each of the following sequences its reported PBM binding z-score.
Test system: PPARg:RXRa (NR concentration 180 nM, RXRa partner concentration 90 nM)
measurement notes: PBM binding z-score (relative to random genomic background probes); higher = stronger binding; sequences stand for … in GC…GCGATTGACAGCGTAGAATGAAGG
Numbers only.

Example entries begin here.
{"columns": ["input sequence", "PBM binding z-score"],
 "data": [
  ["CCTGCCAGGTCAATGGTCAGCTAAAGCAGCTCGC", 2.59],
  ["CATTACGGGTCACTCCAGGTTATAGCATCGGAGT", 4.53],
  ["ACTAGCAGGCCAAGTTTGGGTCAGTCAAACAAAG", -0.396],
  ["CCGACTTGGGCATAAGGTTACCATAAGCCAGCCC", 0.738],
  ["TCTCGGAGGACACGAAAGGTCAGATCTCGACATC", 1.37]
]}

Now for a further sequence.
Query the reported PBM binding z-score for PPARg:RXRa (NR concentration 180 nM, RXRa partner concentration 90 nM); item: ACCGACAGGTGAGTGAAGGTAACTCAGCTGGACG
0.444

###

Test system: LXRa homodimer (NR concentration 270 nM)
measurement notes: PBM binding z-score (relative to random genomic background probes); higher = stronger binding; sequences stand for … in GC…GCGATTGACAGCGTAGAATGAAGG
Task for the reader: assign each of the following sequences its reported PBM binding z-score.
Numbers only.

{"columns": ["input sequence", "subject of test", "PBM binding z-score"],
 "data": [
  ["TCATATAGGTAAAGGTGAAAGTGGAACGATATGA", "LXRa homodimer (NR concentration 270 nM)", -0.0893],
  ["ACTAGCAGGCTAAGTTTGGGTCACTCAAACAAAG", "LXRa homodimer (NR concentration 270 nM)", -0.315],
  ["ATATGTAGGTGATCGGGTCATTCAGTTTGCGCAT", "LXRa homodimer (NR concentration 270 nM)", 0.268],
  ["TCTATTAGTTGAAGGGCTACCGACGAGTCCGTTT", "LXRa homodimer (NR concentration 270 nM)", 0.312],
  ["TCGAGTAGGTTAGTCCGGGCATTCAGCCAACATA", "LXRa homodimer (NR concentration 270 nM)", 0.0222],
  ["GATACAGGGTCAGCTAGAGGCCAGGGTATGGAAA", "LXRa homodimer (NR concentration 270 nM)", -0.258],
  ["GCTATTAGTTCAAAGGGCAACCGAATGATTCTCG", "LXRa homodimer (NR concentration 270 nM)", 0.929],
  ["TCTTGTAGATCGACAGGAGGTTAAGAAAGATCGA", "LXRa homodimer (NR concentration 270 nM)", -0.338]
]}

Below are some sequences; for each one, tell me its PBM binding z-score.
1. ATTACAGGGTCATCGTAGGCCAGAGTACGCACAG
2. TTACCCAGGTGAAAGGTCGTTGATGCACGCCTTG
3. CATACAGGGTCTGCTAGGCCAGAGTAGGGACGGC
4. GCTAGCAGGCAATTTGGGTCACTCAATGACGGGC
5. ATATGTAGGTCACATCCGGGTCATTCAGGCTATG
6. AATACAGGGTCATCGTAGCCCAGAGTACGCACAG
7. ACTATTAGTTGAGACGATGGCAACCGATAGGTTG
8. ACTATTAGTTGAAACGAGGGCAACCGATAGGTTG

1. 1.78
2. 0.858
3. -0.443
4. -0.578
5. 3.31
6. 2.36
7. 0.0381
8. 0.126
